# procedure summary: Human HepG2 cell viability assay in 384 well format
# Assay type: toxicity, cell-based
# Parameters: dose 125 nL, time 70.5 hour; concentration not given beside the values
# condition notes: HepG2 cells, read-out: Inhibition
cytotoxicity at 70.5 h: recorded values

{"molecule": "N#Cc1ccnc(N2CCN(CC(O)c3ccc(F)c(F)c3)CC2)c1 (configuration not stated)", "cytotoxicity at 70.5 h, %": -2.47}
{"molecule": "Cc1ccc(CNC(=O)NCC(=O)N2CCCC2)c(N2CCCC2)c1", "cytotoxicity at 70.5 h, %": 4.74}
{"molecule": "CCn1nc2c(cc1=O)CN(Cc1nc(-c3ccco3)no1)CC2", "cytotoxicity at 70.5 h, %": -10.1}
{"molecule": "CC(=O)N1CCC2(C1)c1ccccc1S(=O)(=O)N2Cc1ccccc1 (configuration not stated)", "cytotoxicity at 70.5 h, %": 3.49}
{"molecule": "CCc1noc(C(C)N2CCC(C)CC2)n1 (configuration not stated)", "cytotoxicity at 70.5 h, %": -3.85}
{"molecule": "CN(Cc1cnn(C)c1)C(=O)NCc1csc(Br)c1", "cytotoxicity at 70.5 h, %": 17.7}
{"molecule": "COC(=O)NCC(=O)N1CCC(c2nc3cc(F)ccc3[nH]2)CC1", "cytotoxicity at 70.5 h, %": -2}
{"molecule": "CCn1ncc(CN2CCc3nc(-c4cccnc4)nc(O)c3C2)c1C", "cytotoxicity at 70.5 h, %": 9.93}
{"molecule": "O=C(COCC1CC1)Nc1cc(-c2ccc(Br)s2)n[nH]1", "cytotoxicity at 70.5 h, %": -5.77}
{"molecule": "CN1CCO[C@@H]2CN(C(=O)c3ccc4ncccc4c3)CC[C@@H]2C1", "cytotoxicity at 70.5 h, %": -8.09}
{"molecule": "O=C(c1ccccc1C1CCNC1)N1CCC(N2CCC(O)CC2)CC1 (configuration not stated)", "cytotoxicity at 70.5 h, %": -12.4}
{"molecule": "CCCN(CCO)C(=O)c1cc(COc2ccc3c(c2)CCCC3)on1", "cytotoxicity at 70.5 h, %": 11.2}
{"molecule": "COc1ccccc1N1CCN(C(=O)CCn2ccc(C)n2)CC1", "cytotoxicity at 70.5 h, %": 23.2}
{"molecule": "CC(=O)Cc1c(C)nn(-c2cncc(N)c2)c1C", "cytotoxicity at 70.5 h, %": -1.56}
{"molecule": "CCn1cnnc1CNC(=O)N(C)Cc1ccc(Cl)cc1Cl", "cytotoxicity at 70.5 h, %": 3.74}
{"molecule": "Cc1nc(CNC(=O)N(CCCO)C2CCc3ccccc32)oc1C (configuration not stated)", "cytotoxicity at 70.5 h, %": -1.03}
{"molecule": "Cc1ccc(-c2cc(C(=O)N3CCCC3c3cccnc3)[nH]n2)o1 (configuration not stated)", "cytotoxicity at 70.5 h, %": -4.23}
{"molecule": "COc1ccc(CC(=O)N2CC[C@@H]3[C@H](CC2)N(C)CCS3(=O)=O)cc1", "cytotoxicity at 70.5 h, %": -8.6}
{"molecule": "CCc1nc(N)sc1C(=O)N1CCCC(COc2cccc(C)c2)C1 (configuration not stated)", "cytotoxicity at 70.5 h, %": -0.442}
{"molecule": "Cc1c(-c2nc(-c3cccc(CN4CCOCC4)c3)no2)cnn1C", "cytotoxicity at 70.5 h, %": -13.7}
{"molecule": "CC(C)c1noc(C(C)S(=O)(=O)Cc2nc(C3CC3)no2)n1 (configuration not stated)", "cytotoxicity at 70.5 h, %": -4.5}
{"molecule": "CCC(NCc1ccccn1)c1ccccc1OCC(=O)NC (configuration not stated)", "cytotoxicity at 70.5 h, %": -3.93}
{"molecule": "COCc1nnc(NC(=O)c2cn(C(C)C)c3ccc(OC)cc23)s1", "cytotoxicity at 70.5 h, %": -10.1}
{"molecule": "CCc1nc(CNC2CCN(S(C)(=O)=O)CC2)cs1", "cytotoxicity at 70.5 h, %": -0.997}
{"molecule": "Cc1ccc(CN2CCC3(CCCN(C(=O)N(C)C)C3)C2)cc1 (configuration not stated)", "cytotoxicity at 70.5 h, %": -6.47}
{"molecule": "Cc1cnc(CCNC(=O)NCCc2ccc(O)cc2)s1", "cytotoxicity at 70.5 h, %": -3.5}
{"molecule": "COc1cc(CCC(C)O)c(OC)c2c1OCO2 (configuration not stated)", "cytotoxicity at 70.5 h, %": -4.78}
{"molecule": "CS(=O)(=O)CCCNC1(c2ccc(Br)cc2)CCC1", "cytotoxicity at 70.5 h, %": -5.79}
{"molecule": "CCN1CCN(C)C(=O)C12CCN(C(=O)Cc1ccccn1)CC2", "cytotoxicity at 70.5 h, %": 0.951}
{"molecule": "CCOCCN1CCN(CC(O)c2cc(Cl)ccc2Cl)CC1 (configuration not stated)", "cytotoxicity at 70.5 h, %": -5.82}
{"molecule": "CC(C)N1CCC(Cc2cnc(-c3cccc(C(=O)O)c3)cn2)C1 (configuration not stated)", "cytotoxicity at 70.5 h, %": -19.1}
{"molecule": "CN(CCc1ccccc1)c1cnn(Cc2ccccn2)c(=O)c1", "cytotoxicity at 70.5 h, %": -4.29}
{"molecule": "Cc1ccc(-c2noc(C(C)NS(C)(=O)=O)n2)cc1 (configuration not stated)", "cytotoxicity at 70.5 h, %": 21.2}
{"molecule": "CNC(=O)c1cc2ccccc2n1C", "cytotoxicity at 70.5 h, %": 16.4}
{"molecule": "Cc1csc(N2CCN(CC(=O)Nc3ccncc3)CC2C)n1 (configuration not stated)", "cytotoxicity at 70.5 h, %": 9.84}
{"molecule": "CN(C)C(=O)N1CCC2(CC1)NC(=O)c1ccccc12", "cytotoxicity at 70.5 h, %": -2.99}
{"molecule": "COC(=O)Cc1cccc(NC(=O)Cc2ccon2)c1", "cytotoxicity at 70.5 h, %": 23.7}
{"molecule": "CCc1nnc2n1CCN(C(=O)Cc1nc(-c3ccco3)oc1C)C2", "cytotoxicity at 70.5 h, %": 10.8}
{"molecule": "CCOCC1CN(C(=O)c2cccn2C)Cc2cnn(CC3CC3)c21 (configuration not stated)", "cytotoxicity at 70.5 h, %": 0.525}
{"molecule": "CC(C)Cc1nc(CNCc2cccc(N3CCCC3=O)c2)no1", "cytotoxicity at 70.5 h, %": -20.4}
{"molecule": "CCNC(=O)c1cn2cc(-c3ccccc3Cl)n(CC3CC3)c(=O)c2n1", "cytotoxicity at 70.5 h, %": 16.2}
{"molecule": "O=C(CC[C@@H]1CCCN2CCCC[C@H]12)NCCc1cc(O)ncn1", "cytotoxicity at 70.5 h, %": -11.3}
